The measurements presented in this section are drawn from patent US20190315854A1.

Recorded kon, one value per entry.
- target.under.test: T1, sIL-6R (soluble IL-6 receptor; SBH Sciences) (human, UniProt P08887 20-365)
- T1 construct: also called human IL-6R
- T1 sequence: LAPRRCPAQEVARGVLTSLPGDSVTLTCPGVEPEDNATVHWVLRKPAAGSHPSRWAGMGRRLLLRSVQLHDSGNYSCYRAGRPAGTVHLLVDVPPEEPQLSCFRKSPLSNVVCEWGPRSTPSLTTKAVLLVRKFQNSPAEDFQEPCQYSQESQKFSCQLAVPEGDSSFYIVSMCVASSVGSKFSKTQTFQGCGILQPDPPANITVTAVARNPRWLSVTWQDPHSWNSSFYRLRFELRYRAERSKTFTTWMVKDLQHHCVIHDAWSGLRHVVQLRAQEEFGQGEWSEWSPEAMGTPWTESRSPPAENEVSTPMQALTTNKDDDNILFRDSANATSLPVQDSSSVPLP
- procedure.summary: SPR (BIAcore 3000), antibody on chip, sIL-6R analyte, 25 C
recorded.metric: kon (M⁻¹ s⁻¹)

1) 225# (antibody, human IgG1, kappa, V domains shown) VH: QVQLQESGPGLVRPSQTLSLTCTVSGYSITSDHAWSWVRQPPGRGLEWIGYISYSGMITYNPSLKSRVTMLRDTSKNQFSLRLSSVTAADTAVYYCARCLARTTAMDYWGQGSLVTVSS VL: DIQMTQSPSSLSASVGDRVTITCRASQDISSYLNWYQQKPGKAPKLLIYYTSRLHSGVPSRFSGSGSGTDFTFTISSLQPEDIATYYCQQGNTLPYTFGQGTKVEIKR; 163000
2) 240# (antibody, human IgG1, kappa, V domains shown, also called Sample # 240) VH: QVQLQESGPGLVRPSQTLSLTCTVSGYSITSDHAWSWVRQPPGRGLEWIGYISYSGMITYNPSLKSRVTMLRDTSKNQFSLRLSSVTAADTAVYYCARSLARATAMDYWGQGSLVTVSS VL: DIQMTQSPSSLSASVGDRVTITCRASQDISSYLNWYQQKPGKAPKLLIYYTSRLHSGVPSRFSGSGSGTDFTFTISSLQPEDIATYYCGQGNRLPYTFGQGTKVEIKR; 154000
